The reported numbers originate from patent US7745619B2.

# System: MCF-7 cells
# PROTOCOL DESCRIPTION: MCF-7 GI50 determination (crystal violet growth inhibition)
# Assay type: cell-based, human
# MEASUREMENT CONTEXT: Homo sapiens, MCF7, 96 h; MCF-7 cells, 4 days of treatment, crystal violet; read-out: MCF-7 Cells GI50
MEASURED PROPERTY: GI50 (nM)
Give the value, in units of nM, as a plain number.

Field request: GI50 | item: `CC[C@]1(O)C[C@H]2CN(CCc3c([nH]c4ccc(SC)cc34)[C@@](C(=O)OC)(c3cc4c(cc3OC)N(C)[C@H]3[C@@](O)(C(=O)OC)[C@H](OC(C)=O)[C@]5(CC)C=CCN6CC[C@]43[C@@H]65)C2)C1`
2

###

# reported GI50; entries follow
# Test system: MCF-7 cells
# PROTOCOL DESCRIPTION: MCF-7 GI50 determination (crystal violet growth inhibition)
# Type: cell-based, human
# MEASUREMENT CONTEXT: Homo sapiens, MCF7, 96 h; MCF-7 cells, 4 days of treatment, crystal violet; read-out: MCF-7 Cells GI50
Give the value, in units of nM, as a plain number.

Here are 3 molecules together with their reported answers.
[
  {
    "MOLECULE": "CCCSc1ccc2[nH]c3c(c2c1)CCN1C[C@H](C[C@@](O)(CC)C1)C[C@]3(C(=O)OC)c1cc2c(cc1OC)N(C)[C@H]1[C@@](O)(C(=O)OC)[C@H](OC(C)=O)[C@]3(CC)C=CCN4CC[C@]21[C@@H]43",
    "QUANTITATIVE READOUT": 25
  },
  {
    "MOLECULE": "CCC1=C[C@H]2CN(CCc3c([nH]c4ccc(Br)cc34)[C@@](C(=O)OC)(c3cc4c(cc3OC)N(C=O)[C@H]3[C@@](O)(C(=O)OC)[C@H](OC(C)=O)[C@]5(CC)C=CCN6CC[C@]43[C@@H]65)C2)C1 [Example 99, 12′-bromoanhydro vincristine]",
    "QUANTITATIVE READOUT": 1
  },
  {
    "MOLECULE": "CC[C@]1(O)C[C@H]2CN(CCc3c([nH]c4ccc(C#C[Si](C)(C)C)cc34)[C@@](C(=O)OC)(c3cc4c(cc3OC)N(C)[C@H]3[C@@](O)(C(=O)OC)[C@H](OC(C)=O)[C@]5(CC)C=CCN6CC[C@]43[C@@H]65)C2)C1",
    "QUANTITATIVE READOUT": 40
  }
]

Here's the next entry for you.
Field request: GI50 | item: `CCCCCCc1ccc2[nH]c3c(c2c1)CCN1C[C@H](C[C@@](O)(CC)C1)C[C@]3(C(=O)OC)c1cc2c(cc1OC)N(C=O)[C@H]1[C@@](O)(C(=O)OC)[C@H](OC(C)=O)[C@]3(CC)C=CCN4CC[C@]21[C@@H]43`
40

###

# Test system: MCF-7 cells
# PROTOCOL DESCRIPTION: MCF-7 GI50 determination (crystal violet growth inhibition)
# Format: cell-based, human
# MEASUREMENT CONTEXT: Homo sapiens, MCF7, 96 h, read-out: MCF-7 Cells GI50 (nM)
# reported GI50; entries follow
Give the value, in units of nM, as a plain number.

Field request: GI50 | item: `CC[C@]1(O)C[C@H]2CN(CCc3c([nH]c4ccc(SCC(=O)OC(C)(C)C)cc34)[C@@](C(=O)OC)(c3cc4c(cc3OC)N(C)[C@H]3[C@@](O)(C(=O)OC)[C@H](OC(C)=O)[C@]5(CC)C=CCN6CC[C@]43[C@@H]65)C2)C1`
100

Same again, this time with `CC[C@]1(O)C[C@H]2CN(CCc3c([nH]c4ccc(Sc5ccccc5Cl)cc34)[C@@](C(=O)OC)(c3cc4c(cc3OC)N(C=O)[C@H]3[C@@](O)(C(=O)OC)[C@H](OC(C)=O)[C@]5(CC)C=CCN6CC[C@]43[C@@H]65)C2)C1`
30

Same again, this time with `CC[C@]1(O)C[C@H]2CN(CCc3c([nH]c4ccc(/C=C/CNC(=O)OC(C)(C)C)cc34)[C@@](C(=O)OC)(c3cc4c(cc3OC)N(C)[C@H]3[C@@](O)(C(=O)OC)[C@H](OC(C)=O)[C@]5(CC)C=CCN6CC[C@]43[C@@H]65)C2)C1`
300

Same again, this time with `CC[C@]1(O)C[C@H]2CN(CCc3c([nH]c4ccc(N5CCCCC5)cc34)[C@@](C(=O)OC)(c3cc4c(cc3OC)N(C)[C@H]3[C@@](O)(C(=O)OC)[C@H](OC(C)=O)[C@]5(CC)C=CCN6CC[C@]43[C@@H]65)C2)C1`
30
